The reported measurements were obtained from ChEMBL document CHEMBL4020833.

method description: Half life in rat plasma at 1 mM by UPLC-MS analysis
Assay type: ADME, cell-free
Positions of bridges follow the written chain, without caps; N, C: chain ends. Non-standard residues stand in square brackets, D forms with d. Residues, ends and D or L forms follow the SMILES beside them. AllylGly = C=CC[C@H](N)C(=O)O; pGlu = O=C1CC[C@@H](C(=O)O)N1; Nle = CCCC[C@H](N)C(=O)O
readout: half-life at 1000 µM (h)
Respond numerically; units are h and should not be typed.

| molecule | readout | test result |
| --- | --- | --- |
| CCCC[C@@H]1NC(=O)[C@@H]2CCCN2C(=O)CNC(=O)[C@@H](NC(=O)[C@H](Cc2cnc[nH]2)NC(=O)[C@H](CO)NC(=O)[C@H](CC(C)C)NC(=O)[C@H](CCCNC(=N)N)NC(=O)[C@@H]2CCCN2C(=O)[C@H](CCCNC(=N)N)NC(=O)[C@@H]2CCC(=O)N2)C/C=C\C[C@@H](C(=O)N[C@@H](Cc2ccccc2)C(=O)O)NC1=O ([pGlu]RPRLSH[AllylGly]GP[Nle][AllylGly]F-OH; staple (Z) 8-12) | half-life at 1000 µM | 4.6 |

Turning now to a further molecule:
Could you share which half-life at 1000 µM value was measured for CCCC[C@H](NC(=O)[C@@H]1C/C=C\C[C@H](NC(=O)[C@H](CC(C)C)NC(=O)[C@H](CCCNC(=N)N)NC(=O)[C@@H]2CCCN2C(=O)[C@H](CCCNC(=N)N)NC(=O)[C@@H]2CCC(=O)N2)C(=O)N[C@@H](Cc2cnc[nH]2)C(=O)N[C@@H](CCCCN)C(=O)NCC(=O)N1)C(=O)N1CCC[C@H]1C(=O)N[C@@H](Cc1ccccc1)C(=O)O ([pGlu]RPRL[AllylGly]HKG[AllylGly][Nle]PF-OH; staple (Z) 6-10) ?
4.1
